Reference for the values: patent US20080200448A1

# Tgt: P2Y12 receptor (Homo sapiens, UniProt Q9H244)
# Construct: expressed in transfected cells; host or cells: CHO cells (membrane preparation)
# Sequence (Q9H244 whole entry): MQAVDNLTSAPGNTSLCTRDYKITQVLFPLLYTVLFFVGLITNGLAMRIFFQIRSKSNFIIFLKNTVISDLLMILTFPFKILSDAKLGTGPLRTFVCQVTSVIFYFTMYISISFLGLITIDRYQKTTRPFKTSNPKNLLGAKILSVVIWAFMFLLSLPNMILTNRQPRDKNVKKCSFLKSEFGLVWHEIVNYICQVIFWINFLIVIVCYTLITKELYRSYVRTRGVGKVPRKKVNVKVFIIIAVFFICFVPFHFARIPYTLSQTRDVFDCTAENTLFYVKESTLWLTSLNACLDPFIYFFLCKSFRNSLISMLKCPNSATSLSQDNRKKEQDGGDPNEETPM
# Protocol notes: Functional inhibition of 2-Me-S-ADP induced P2Y12 signalling (35S-GTPγS binding, cell membranes)
# Type: biochemical
# Measurement parameters: 35S-GTPγS assay, membranes, EC80 concentration of 2-methyl-thio-adenosine diphosphate, 30° C. for 45 min; read-out: GTPγS (IC50 μM)
Readout: IC50 (µM)

Take a look at these entries with their results.
Smiles str	IC50 [µM]
CCOC(=O)c1cc(C#N)c(N2CCC(C(=O)NS(=O)(=O)Cc3ccccc3)CC2)nc1CN1CCCC1	0.545
CCOC(=O)c1cc(C#N)c(N2CC(C(=O)NS(=O)(=O)Cc3ccccc3)C2)nc1CN1C(=O)CCC1=O	0.064
CCOC(=O)c1cc(C#N)c(N2CCC(C(=O)NS(=O)(=O)Cc3ccc(Cl)cc3F)CC2)nc1CN1CCCC1=O	0.01
CCOC(=O)CCCc1nc(N2CCC(C(=O)NS(=O)(=O)Cc3ccccc3)CC2)c(C#N)cc1C(=O)OCC	0.066

1 = CCOC(=O)c1cc(C#N)c(N2CCC(C(=O)NS(=O)(=O)CC3CCCCC3)CC2)nc1CN1CCCCC1=O
2 = CCOC(=O)c1cc(C#N)c(N2CCC(C(=O)NS(=O)(=O)Cc3ccc(F)cc3)CC2)nc1CN1CCCCC1=O
3 = CCOC(=O)c1cc(C#N)c(N2CCC(C(=O)NS(=O)(=O)Cc3ccc(OC)cc3)CC2)nc1CN1CCCC1=O
IN: Rank entries according to their IC50, from the largest number down. Put the labels in the requested order and list them out.
OUT: 2, 1, 3
(2: 0.148 µM, 1: 0.061 µM, 3: 0.0075 µM)

* * *

# Tgt: P2Y12 receptor (Homo sapiens, UniProt Q9H244)
# Construct: expressed in transfected cells; host or cells: CHO cells (membrane preparation)
# Protocol notes: Functional inhibition of 2-Me-S-ADP induced P2Y12 signalling (35S-GTPγS binding, cell membranes)
# Format: biochemical
# Measurement parameters: 35S-GTPγS assay, membranes, EC80 concentration of 2-methyl-thio-adenosine diphosphate, 30° C. for 45 min; read-out: GTPγS (IC50 μM)
# Protocol: Functional inhibition of- the P2Y12 receptor can be measured by in vitro assays using cell membranes from P2Y12 transfected CHO-cells, the methodology is indicated below. Functional inhibition of 2-Me-S-ADP induced P2Y12 signalling: 5 μg of membranes were diluted in 200 μl of 200 mM NaCl, 1 mM MgCl2, 50 mM HEPES (pH 7.4), 0.01% BSA, 30 μg/ml saponin and 10 μM GDP. […]
Readout: IC50 (µM)

Completed entries (count: 5):
Molecule	Tgt	IC50 / µM
CCOC(=O)c1cc(C#N)c(N2CCC(C(=O)NS(=O)(=O)Cc3ccccc3)CC2)nc1SCC(=O)OC(C)C [Example 111]	P2Y12 receptor (Homo sapiens, UniProt Q9H244)	0.016
CCOC(=O)c1cc(C#N)c(N2CCC(C(=O)NS(=O)(=O)Cc3ccc(C(C)C)cc3)CC2)nc1CN1CCCCC1=O [Example 69]	P2Y12 receptor (Homo sapiens, UniProt Q9H244)	0.082
CC(C)OC(=O)c1cc(C#N)c(N2CCC(C(=O)NS(=O)(=O)Cc3ccccc3)CC2)nc1CN1CCCC1=O [Example 34]	P2Y12 receptor (Homo sapiens, UniProt Q9H244)	0.033
CCOC(=O)c1cc(C#N)c(N2CCC(C(=O)NS(=O)(=O)Cc3ccccc3)CC2)nc1CSc1nccs1 [Example 117]	P2Y12 receptor (Homo sapiens, UniProt Q9H244)	0.035
CCOC(=O)c1cc(C#N)c(N2CCC(C(=O)NS(=O)(=O)CC3CCC3)CC2)nc1CN1CCCC1=O [Example 74]	P2Y12 receptor (Homo sapiens, UniProt Q9H244)	0.037

P = CCOC(=O)c1cc(C#N)c(N2CCC(C(=O)NS(=O)(=O)Cc3ccccc3)CC2)nc1OCC1CCO1 (stereo not shown) [Example 23]
Q = CCOC(=O)CSc1nc(N2CCC(C(=O)NS(=O)(=O)Cc3ccccc3)CC2)c(C#N)cc1C(=O)OCC [Example 126]
IN: For the two items P and Q , which reports the higher IC50 value? Indicate your choice by writing its label.
OUT: P
(P: 0.048 µM, Q: 0.011 µM)

* * *

# Tgt: P2Y12 receptor (Homo sapiens)
# Construct: expressed in transfected cells; host or cells: CHO cells (membrane preparation)
# Protocol notes: Functional inhibition of 2-Me-S-ADP induced P2Y12 signalling (35S-GTPγS binding, cell membranes)
# Assay type: biochemical
# Measurement parameters: functional inhibition of 2-Me-S-ADP induced P2Y12 signalling; membranes from P2Y12 transfected CHO-cells; EC80 concentration of agonist; read-out: IC50
pIC50: −log10 of the molar value.
Readout: pIC50

a = CCOC(=O)c1cc(C#N)c(N2CCC(C(=O)NS(=O)(=O)Cc3ccccc3)CC2)nc1CS(C)(=O)=O [Example 12]
b = CCOC(=O)c1cc(C#N)c(N2CCC(C(=O)NS(=O)(=O)Cc3ccccc3)CC2)nc1CN(C)C [Example 4]
IN: Field: lower recorded pIC50 (choose a or b ) Bench note: the answer is the label of the chosen record.
OUT: b

* * *

# Tgt: P2Y12 receptor (Homo sapiens, UniProt Q9H244)
# Construct: expressed in transfected cells; host or cells: CHO cells (membrane preparation)
# Protocol notes: Functional inhibition of 2-Me-S-ADP induced P2Y12 signalling (35S-GTPγS binding, cell membranes)
# Assay type: biochemical
# Measurement parameters: 35S-GTPγS assay, membranes, EC80 concentration of 2-methyl-thio-adenosine diphosphate, 30° C. for 45 min; read-out: GTPγS (IC50 μM)
# Procedure: Functional inhibition of- the P2Y12 receptor can be measured by in vitro assays using cell membranes from P2Y12 transfected CHO-cells, the methodology is indicated below. Functional inhibition of 2-Me-S-ADP induced P2Y12 signalling: 5 μg of membranes were diluted in 200 μl of 200 mM NaCl, 1 mM MgCl2, 50 mM HEPES (pH 7.4), 0.01% BSA, 30 μg/ml saponin and 10 μM GDP. […]
Readout: IC50 (µM)

Please review the entries below; each comes with its answer.
Compound	Unit spec	Reported
CC(C)OC(=O)c1cc(C#N)c(N2CCC(C(=O)NS(=O)(=O)Cc3ccc([Si](C)(C)C)cc3)CC2)nc1CN1CCCC1=O [Example 99]	µM	0.497
CCOC(=O)c1cc(C#N)c(N2CCC(C(=O)NS(=O)(=O)CC3CCOCC3)CC2)nc1CN1CCCC1=O [Example 72]	µM	0.725
CCOC(=O)c1cc(C#N)c(N2CCC(C(=O)NS(=O)(=O)Cc3ccc(OC)cc3)CC2)nc1CN1CCCCC1=O [Example 68]	µM	0.024
CCOC(=O)c1cc(C#N)c(N2CCC(C(=O)NS(=O)(=O)N(C)c3ccccc3)CC2)nc1CN1CCCC1=O [Example 57]	µM	0.013

A = CC(C)OC(=O)c1cc(C#N)c(N2CCC(C(=O)NS(=O)(=O)Cc3ccc(F)cc3Cl)CC2)nc1CN1CCCC1=O [Example 49]
B = CC(C)OC(=O)c1cc(C#N)c(N2CCC(C(=O)NS(=O)(=O)Cc3ccc(Cl)cc3Cl)CC2)nc1CN1CCCC1=O [Example 53]
IN: Determine, for A and B , which has the greater value of IC50. // respond with label for picked entry
OUT: A
(A: 0.066 µM, B: 0.032 µM)

* * *

# Tgt: P2Y12 receptor (Homo sapiens)
# Construct: expressed in transfected cells; host or cells: CHO cells (membrane preparation)
# Protocol notes: Functional inhibition of 2-Me-S-ADP induced P2Y12 signalling (35S-GTPγS binding, cell membranes)
# Format: biochemical
# Measurement parameters: 35S-GTPγS assay, membranes, EC80 concentration of 2-methyl-thio-adenosine diphosphate, 30° C. for 45 min; read-out: GTPγS (IC50 μM)
Readout: IC50 (µM)

Molecule	IC50 (µM)
CC(C)OC(=O)c1cc(C#N)c(N2CCC(C(=O)NS(=O)(=O)Cc3ccc(F)cc3F)CC2)nc1CN1CCCC1=O	0.021

P = CCOC(=O)c1cc(C#N)c(N2CCC(C(=O)NS(=O)(=O)Cc3ccccc3)CC2)nc1OCCC#N
Q = CCOC(=O)c1cc(C#N)c(N2CCC(C(=O)NS(=O)(=O)Cc3ccccc3)CC2)nc1COC(=O)CO
R = CC1CCC(CS(=O)(=O)NC(=O)C2CCN(c3nc(CN4CCCC4=O)c(C(=O)OC(C)C)cc3C#N)CC2)CC1 (stereo not shown)
IN: Ascending sort, IC50. Put the labels in the requested order and write them down.
OUT: Q, P, R

* * *

# Tgt: P2Y12 receptor (Homo sapiens, UniProt Q9H244)
# Construct: expressed in transfected cells; host or cells: CHO cells (membrane preparation)
# Protocol notes: Functional inhibition of 2-Me-S-ADP induced P2Y12 signalling (35S-GTPγS binding, cell membranes)
# Format: biochemical
# Measurement parameters: 35S-GTPγS assay, membranes, EC80 concentration of 2-methyl-thio-adenosine diphosphate, 30° C. for 45 min; read-out: GTPγS (IC50 μM)
Readout: IC50 (µM)

Worked cases, answers included:
Smiles str	Tgt	Readout	Unit spec	Reported
CCOC(=O)c1cc(Cl)c(N2CCC(C(=O)NS(=O)(=O)Nc3ccc(F)cc3)CC2)nc1CN1CCCC1=O	P2Y12 receptor (Homo sapiens, UniProt Q9H244)	IC50	µM	0.145
CCOC(=O)c1cc(C#N)c(N2CCC(C(=O)NS(=O)(=O)Cc3ccc(F)cc3F)CC2)nc1CN1CCCC1=O	P2Y12 receptor (Homo sapiens, UniProt Q9H244)	IC50	µM	0.0033
CC(C)OC(=O)c1cc(C#N)c(N2CCC(C(=O)NS(=O)(=O)Cc3ccc(Cl)cc3)CC2)nc1CN1CCCC1=O	P2Y12 receptor (Homo sapiens, UniProt Q9H244)	IC50	µM	0.012
CCOC(=O)c1cc(C#N)c(N2CC(C(=O)NS(=O)(=O)Cc3ccccc3)C2)nc1COC(=O)CO	P2Y12 receptor (Homo sapiens, UniProt Q9H244)	IC50	µM	0.044
CCOC(=O)c1cc(C#N)c(N2CCC(C(=O)NS(=O)(=O)Cc3ccccc3)CC2)nc1CS(C)(=O)=O	P2Y12 receptor (Homo sapiens, UniProt Q9H244)	IC50	µM	0.129

a = CCOC(=O)c1cc(C#N)c(N2CCC(C(=O)NS(=O)(=O)Cc3ccccc3)CC2)nc1OCCN1CCCC1=O
b = CCOC(=O)c1cc(C#N)c(N2CCC(C(=O)NS(=O)(=O)CC3CCCC3)CC2)nc1CN1CCCCC1=O
c = CCOC(=O)c1cc(C#N)c(N2CCC(C(=O)NS(=O)(=O)Cc3ccc(SC(F)(F)F)cc3)CC2)nc1CN1CCCCC1=O
d = CCOC(=O)CCc1nc(N2CCC(C(=O)NS(=O)(=O)Cc3ccccc3)CC2)c(C#N)cc1C(=O)OCC
IN: Task for the reader: rank each entry by its IC50, from the minimum upward. Labels, requested order.
OUT: a, d, b, c

I = CC(C)OC(=O)c1cc(C#N)c(N2CCC(C(=O)NS(=O)(=O)Cc3ccc(F)cc3)CC2)nc1CN1CCCC1=O
II = CCOC(=O)c1cc(Cl)c(N2CCC(C(=O)NS(=O)(=O)Cc3ccc(OC)cc3)CC2)nc1CN1CCCC1=O
III = CCOC(=O)c1cc(C#N)c(N2CCC(C(=O)NS(=O)(=O)Cc3ccccc3)CC2)nc1CSCC(=O)O
IV = CCOC(=O)c1cc(C#N)c(N2CCC(C(=O)NS(=O)(=O)Cc3ccccc3)CC2)nc1CSCc1nccn1C
IN: Please list these in order of increasing IC50. Thank you! Please respond with the labels ordered as the question requires.
OUT: I, III, II, IV
